Origin of measurements: patent US6689808B2

quantity_kind: melting point

{"compound": "CCC1(CC)OC(=O)c2cc([N+](=O)[O-])ccc21 [Example 24, 3,3-Diethyl-6-nitro-phthalide]", "quantity_kind": "melting point", "reported_result": "98.5 to 100 °C"}
{"compound": "CCCCCCCCC1OC(=O)c2cc(N)ccc21 (stereo not drawn) [Example 6, 6-Amino-3-octyl-phthalide]", "quantity_kind": "melting point", "reported_result": "124 to 125 °C"}
{"compound": "CCCCC1OC(=O)c2cc(NC(N)=S)ccc21 (stereo not drawn) [Example 21, 3-Butyl-6-thioureido-phthalide]", "quantity_kind": "melting point", "reported_result": "183 to 185 °C"}
{"compound": "CCCCCCCCC1OC(=O)c2cc(NC(C)=O)ccc21 (stereo not drawn) [Example 9, 6-Acetamido-3-octyl-phthalide]", "quantity_kind": "melting point", "reported_result": "133 to 134 °C"}
{"compound": "CCC1(CC)OC(=O)c2cc(N)ccc21 [Example 25, 6-Amino-3,3-diethyl-phthalide]", "quantity_kind": "melting point", "reported_result": "153 to 154 °C"}

Could you now look at the following compound, please?
Consider the compound shown here: CCCCCCC1OC(=O)c2cc(NC(C)=O)ccc21 (stereo not drawn) [Example 8, 6-Acetamido-3-hexyl-phthalide] What is its recorded melting point?
135 to 137 °C
